Cited source for all entries: ChEMBL document CHEMBL3616378

# TARGET ENTITY: Metabotropic glutamate receptor 3 (Homo sapiens, UniProt Q14832, Q306L)
# Sequence (Q14832 23-879 Q306L limits assumed): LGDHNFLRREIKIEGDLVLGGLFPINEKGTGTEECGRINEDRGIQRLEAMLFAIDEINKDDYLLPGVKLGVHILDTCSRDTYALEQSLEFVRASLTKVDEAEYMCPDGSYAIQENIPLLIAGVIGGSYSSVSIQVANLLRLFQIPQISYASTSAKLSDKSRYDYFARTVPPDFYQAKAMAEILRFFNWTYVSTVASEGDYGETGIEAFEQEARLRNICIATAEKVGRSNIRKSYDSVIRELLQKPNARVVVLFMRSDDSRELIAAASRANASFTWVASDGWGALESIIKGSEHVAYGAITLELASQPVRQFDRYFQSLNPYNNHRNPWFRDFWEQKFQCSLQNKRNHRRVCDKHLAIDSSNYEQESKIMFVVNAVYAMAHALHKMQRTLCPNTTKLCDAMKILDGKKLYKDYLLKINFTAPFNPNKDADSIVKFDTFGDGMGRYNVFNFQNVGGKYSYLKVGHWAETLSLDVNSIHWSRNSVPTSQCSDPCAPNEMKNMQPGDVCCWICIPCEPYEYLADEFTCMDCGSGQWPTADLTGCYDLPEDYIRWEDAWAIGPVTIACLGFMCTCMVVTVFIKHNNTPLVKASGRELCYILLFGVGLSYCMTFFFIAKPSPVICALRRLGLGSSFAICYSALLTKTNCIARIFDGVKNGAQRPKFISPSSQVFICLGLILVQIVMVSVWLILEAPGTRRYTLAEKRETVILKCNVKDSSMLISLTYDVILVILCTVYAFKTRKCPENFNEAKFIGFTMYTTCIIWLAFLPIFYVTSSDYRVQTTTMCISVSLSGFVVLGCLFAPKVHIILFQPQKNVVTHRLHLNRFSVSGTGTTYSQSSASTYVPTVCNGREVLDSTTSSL
# ASSAY NAME: Agonist activity at human recombinant mGlu3 receptor Q306L mutant expressed in AV12 cells assessed as stimulation of Ca2+ mobilization after 1 hr by FLIPR assay
pEC50: −log10 of the molar value.
MEASUREMENT LABEL: pEC50

[I] N[C@@]1(C(=O)O)C[C@@H](Sc2nc[nH]n2)[C@H]2[C@H](C(=O)O)[C@H]21
[II] N[C@@H](CCC(=O)O)C(=O)O
Please choose the item with the lower pEC50 value from this pair: I and II Record your answer as the label of the chosen record. I
(I: 5.55, II: 5.83)
